- system_name: AMP-activated protein kinase, AMPK (Homo sapiens) (UniProt P54646+O43741+P54619+Q9UGJ0+Q9Y478+Q13131+Q9UGI9)
- assay_name: AMP-dependent Kinase enzyme assay. An in vitro enzyme assay that detects ADP turnover that is directly proportional to AMPK activity. This uses naive AMPK that is activated during the assay with MK-8722
- Format: functional
- Set-up: scale not given: direction of the effect not stated beside the values
- study_conditions: 30 µM
property_label: Percent Effect (%)
Answers are plain numbers, in %.

CN1CCCCC1c1ncc2c(n1)CCN(Cc1ccccc1Cl)C2 (configuration not stated) : 4.6

Hi team, please reply with Percent Effect for each item in this list.
1. CCNC(=O)NC(=O)CSC(C)c1c(F)cccc1F (configuration not stated)
2. O=C(NC1CC1)[C@H]1C[C@H]2OCC[C@H]2N(CC2CC2)C1
3. O=C(NCc1ccncc1)N(Cc1ccccc1F)C1CC1

1.21
3.02
-7.25

Hi team, please reply with Percent Effect for each item in this list.
1. CC(=O)NCC(=O)N1CCn2cc(CN3CCN(C)CC3)nc2C1
2. CN(Cc1nc(C2CC2)no1)C1CCCN(c2cccnn2)C1 (configuration not stated)
3. CCn1c(C)nnc1CN(C)C1CCN(CCc2ccncc2)C1 (configuration not stated)
4. O=C(c1csc(-c2cccs2)n1)N1CCCC1Cn1cccn1 (configuration not stated)
5. CC(=O)N1CCN(CC2CCOc3ccccc3C2)CC1 (configuration not stated)
6. CC(C)c1nc2n(n1)CC(NCc1nc(-c3cccnc3)no1)CC2 (configuration not stated)
7. Fc1ccc(CN2CCO[C@H]3[C@H](OCCN4CCCC4)CC[C@@H]32)cc1

-0.0716
11.7
-0.899
-6.24
-8.25
-1.93
5.78

What measured Percent Effect goes with Cc1ccoc1-c1nnc(CNCC2CCCN2c2cccnn2)o1 (configuration not stated) ? -0.825
